Reference source: patent US20250257130A1

- system under test: T1, Human ROR1-ECD-his (Acro Biosystems RO1-H522y) (human, UniProt Q01973 30-406)
- T1 construct: extracellular domain; bought protein; also called hROR1-ECD-his; hu-ROR1-ECD-his
- T1 sequence (Q01973 30-406): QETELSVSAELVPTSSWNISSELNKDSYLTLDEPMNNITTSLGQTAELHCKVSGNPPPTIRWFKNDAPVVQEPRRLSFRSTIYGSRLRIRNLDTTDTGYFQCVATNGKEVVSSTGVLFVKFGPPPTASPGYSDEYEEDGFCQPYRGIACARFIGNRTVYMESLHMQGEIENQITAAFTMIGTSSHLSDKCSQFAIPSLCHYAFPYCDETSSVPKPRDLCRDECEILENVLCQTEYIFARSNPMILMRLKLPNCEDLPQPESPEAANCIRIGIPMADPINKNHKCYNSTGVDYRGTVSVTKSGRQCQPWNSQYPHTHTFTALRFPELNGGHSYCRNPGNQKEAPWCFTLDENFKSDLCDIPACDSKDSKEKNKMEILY
- measurement description: BLI in-tandem, row = 1st Ab; competitor (2nd Ab): PR007424
- Procedure: To determine if anti-ROR1 antibodies bind to human ROR1 on different or approximate binding epitopes, the ForteBio Octet® RED96e platform was used to perform epitope competition experiments on the anti-ROR1 antibodies. […] The second binding signals were recorded as the 100% signal of each antibody when the first antibodies were replaced by kinetics buffer. All the binding data were analyzed using ForteBio Data Analysis 11.0 software. The inhibition rate is calculated by the following formula: […]
property label: Inhibition (%)
Quick note: number first, unit second.

For orientation, consider the following solved cases.
binder	Inhibition (%)
PR007417 (antibody, V domains shown, bivalent form (HCAb) variant of PR005340, no light chain) VH: EVQLVESGGGLVKPGGSLRLSCAASGFTFSDFYMSWIRQAPGKGLEWISYISSSGSTRYYADSVKGRFTISRDNAKNSLYLQMNSLRAEDTAIYYCARDIPSSSSDWVDLQFDYWGQGTLVTVSS	111%
PR005340 (antibody, human IgG1, V domains shown, HCAb (heavy chain-only, human IgG1 Fc), no light chain) VH: EVQLVESGGGLVKPGGSLRLSCAASGFTFSDYYMSWIRQAPGKGLEWISYISSSGSTIHYADSVKGRFTISRDNAKNSLYLQMNSLRAEDTAIYYCARDIPSSSSDWVSLQFDYWGQGTLVTVSS	106%

Lab note: next binder to report on.
What does the record list as Inhibition (%) for PR000374 (antibody, human IgG1, kappa, V domains shown, positive control; also called Bench marker 1) VH: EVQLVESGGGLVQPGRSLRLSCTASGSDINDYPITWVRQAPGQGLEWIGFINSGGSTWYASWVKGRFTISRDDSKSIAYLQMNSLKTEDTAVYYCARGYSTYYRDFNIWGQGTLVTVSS VL: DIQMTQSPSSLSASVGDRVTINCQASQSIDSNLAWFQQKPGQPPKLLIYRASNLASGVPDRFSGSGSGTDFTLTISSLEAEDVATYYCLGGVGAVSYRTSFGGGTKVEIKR ? -8.53%
